Source: patent US20230203041A1

Quick note: these are Ki numbers for system: human Adenosine A2a receptor (Homo sapiens, UniProt P29274)
Sequence (P29274 whole entry): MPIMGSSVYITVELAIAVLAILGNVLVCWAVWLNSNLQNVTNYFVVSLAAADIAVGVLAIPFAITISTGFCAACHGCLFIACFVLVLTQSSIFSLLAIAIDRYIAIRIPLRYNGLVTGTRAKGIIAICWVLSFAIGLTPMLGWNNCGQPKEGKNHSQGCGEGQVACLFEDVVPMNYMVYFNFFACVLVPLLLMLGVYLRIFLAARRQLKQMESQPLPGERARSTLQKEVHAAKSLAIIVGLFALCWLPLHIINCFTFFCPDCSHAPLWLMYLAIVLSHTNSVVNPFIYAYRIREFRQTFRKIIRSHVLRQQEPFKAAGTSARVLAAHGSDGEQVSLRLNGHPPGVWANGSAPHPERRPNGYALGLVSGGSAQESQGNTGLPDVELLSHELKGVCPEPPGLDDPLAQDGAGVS
Where a name gives a salt, the structure may show the parent alone.
Measure: Ki (nM)

As a guide, the following entries are already answered.
CC(C)(C)OC(=O)N1CCC[C@@H]1CNc1ccn2nc(-c3ccco3)c(C#N)c2n1 [Example 37.2] ... 19.2
C[C@H]1CN(c2ccn3nc(-c4ccco4)c(C#N)c3n2)CCN1C(=O)OC(C)(C)C [Example 37.11] ... 171
Cc1cc(-c2c(-c3cccc(C#N)c3)nn3ccc(CN4CCOCC4)nc23)cc(Cl)n1 [Example 20] ... 11.6
Cc1cc(-c2c(-c3cccc(C#N)c3)nn3ccc(NC(C)(C)C)nc23)cc(Cl)n1 [Example 3.2] ... 12
Cc1cc(-c2c(-c3cccc(C#N)c3)nn3ccc(C(=O)NCC4CNCCO4)nc23)cc(Cl)n1 (stereo not shown) [Example 7.11] ... 4.9

P: Cc1cc(-c2c(-c3cccc(C#N)c3)nn3ccc(C(=O)NS(C)(=O)=O)nc23)cc(Cl)n1 [Example 6.8]
Q: CC(=O)Nc1cc(-c2c(-c3cccc(C#N)c3)nn3ccc(N)nc23)cc(C)n1 [Example 27.4]
### Prompt Recorded Ki values differ for P and Q ; which one is higher? Choose, then provide that item's label.
### Response Q
(Q: 54.1 nM, P: 8.3 nM)

1: Nc1ccn2nc(-c3ccco3)c(Br)c2n1 [Example 50]
2: Cc1cc(-c2c(-c3cccc(C#N)c3)nn3ccc(NC(=O)NCCN)nc23)cc(Cl)n1 [Example 31.2, trifluoroacetate]
3: c1ccc(CNc2ccn3nc(-c4ccco4)cc3n2)cc1 [Example 48]
### Prompt Task field, ranking: reported Ki, descending order. Could you list the labels in the order requested?
### Response 1, 3, 2
(1: 151 nM, 3: 16.6 nM, 2: 4.6 nM)

P: Cc1cc(-c2c(-c3cccc(C#N)c3)nn3ccc(C(=O)N[C@@H]4COC[C@]4(C)O)nc23)cc(C)n1 [Example 92.12]
Q: Cc1cc(-c2c(-c3cccc(C#N)c3)nn3ccc(N[C@@H](C)CO)nc23)cc(Cl)n1 [Example 23.3]
### Prompt Of the two listed items, P and Q , which carries the larger Ki figure? The response must carry the label of the picked entry.
### Response Q

* * *

Sequence of the target: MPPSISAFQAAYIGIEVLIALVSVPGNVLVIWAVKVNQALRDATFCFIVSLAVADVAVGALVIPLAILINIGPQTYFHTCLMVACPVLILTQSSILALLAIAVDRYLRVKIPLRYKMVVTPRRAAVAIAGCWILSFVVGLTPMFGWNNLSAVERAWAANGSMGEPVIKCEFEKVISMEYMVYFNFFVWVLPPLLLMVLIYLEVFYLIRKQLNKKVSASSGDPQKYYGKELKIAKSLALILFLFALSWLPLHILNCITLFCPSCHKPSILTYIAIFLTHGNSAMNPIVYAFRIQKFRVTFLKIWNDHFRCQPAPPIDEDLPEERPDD
pKi: −log10 of the molar value.
Measure: pKi

Solved cases (6 shown):
Cc1cc(-c2c(-c3cccc(C#N)c3)nn3ccc(NC(=O)NCC(C)(C)O)nc23)cc(Cl)n1 ... 7.59
Cc1cc(-c2c(-c3cccc(C#N)c3)nn3ccc(N/C(N)=N\C#N)nc23)cc(Cl)n1 ... 6.10
N#Cc1cccc(-c2nn3ccc(N)nc3c2-c2ccncc2)c1 ... 8.52
Cn1cc(-c2c(-c3ccco3)nn3ccc(NCc4ccccc4)nc23)cn1 ... 6.67
Cc1cc(-c2c(-c3cccc(C#N)c3)nn3ccc(NC(=O)N4CCC(C)(C#N)CC4)nc23)cc(C)n1 ... 6.58
CCn1nccc1-c1c(-c2cccc(C#N)c2)nn2ccc(N3CCNCC3)nc12 ... 6.05

a: N#Cc1c(-c2ccc(F)cc2)nn2ccc(NCc3ccccc3)nc12
b: Cc1cc(-c2c(-c3cccc(C#N)c3)nn3ccc(C(=O)NC[C@H]4CCC(=O)N4)nc23)cc(C)n1
### Prompt Between a and b , which one shows the larger pKi value? Field: selected label. Fill in the label of the entry you choose.
### Response a

P: CCn1nccc1-c1c(-c2cccc(C#N)c2)nn2ccc(N3CC4CCC(C3)O4)nc12
Q: Cc1cc(-c2c(-c3cccc(C#N)c3)nn3ccc(NC(N)=O)nc23)cc(C)n1
### Prompt Given P and given Q , which shows the smaller recorded pKi? Lab note: record the label of whichever item you select.
### Response P

* * *

# Target under test: human Adenosine A1 receptor (Homo sapiens, UniProt P30542)
pKi: −log10 of the molar value.
Measure: pKi

Cc1cc(-c2c(-c3cccc(C#N)c3)nn3ccc(N4CCOC[C@H]4C(=O)O)nc23)cc(Cl)n1 ... 7.68
Cc1cc(-c2c(-c3cccc(C#N)c3)nn3ccc(NCC(C)(C)O)nc23)cc(C(F)F)n1 ... 7.38
Cc1cc(-c2c(-c3cccc(C#N)c3)nn3ccc(C(=O)NCC(C)(O)CO)nc23)cc(Cl)n1 (stereo not shown) ... 6.63
Brc1c(-c2ccco2)nn2ccc(NCc3ccccc3)nc12 ... 6.85
Cc1cc(-c2c(-c3cccc(C#N)c3)nn3ccc(NC(=O)C(C)(C)C)nc23)cc(Cl)n1 ... 6.84

a: Cc1cc(-c2c(-c3cccc(C#N)c3)nn3ccc(C(=O)N[C@@H]4COC[C@@H]4O)nc23)cc(C)n1
b: Cc1cc(-c2c(-c3cccc(C#N)c3)nn3ccc(NCCC(C)(C)O)nc23)cc(Cl)n1
c: CCn1nccc1-c1c(-c2cccc(C#N)c2)nn2ccc(NCC(C)(C)O)nc12
d: Cc1cc(-c2c(-c3cccc(C#N)c3)nn3ccc(C(=O)NCCC(C)(C)O)nc23)cc(Cl)n1
### Prompt Would you mind ranking these compounds by ascending pKi? Answer by naming the labels in the order asked.
### Response a, d, c, b

I: NC(=O)c1c(-c2ccco2)nn2ccc(N3CCN(CCF)CC3)nc12
II: CCN1CCC(NC(=O)Nc2ccn3nc(-c4cccc(C#N)c4)c(-c4cc(C)nc(Cl)c4)c3n2)CC1
III: Cc1cc(-c2c(-c3cccc(C#N)c3)nn3ccc(C(=O)N[C@@H](C)C(C)(C)O)nc23)cc(CO)n1
### Prompt Rank the items in ascending order with respect to pKi. Lab note: final answer is the ordered label list.
### Response I, II, III
(I: 5.59, II: 6.89, III: 7.19)

* * *

pKi: −log10 of the molar value. Structures can show the parent of a compound that is named as a salt.
Measured pKi on human Adenosine A2a receptor (Homo sapiens, UniProt P29274) follows.
Measure: pKi

N#Cc1c(-c2cccc(F)c2)nn2ccc(N3CCN(CCF)CC3)nc12 ... 7.42
Cc1cc(-c2c(-c3cccc(C#N)c3C)nn3ccc(C(=O)NCC(C)(C)O)nc23)cc(Cl)n1 ... 9.30
N#Cc1c(-c2ccco2)nn2ccc(NC[C@H]3CNCCO3)nc12 [Example 42.1, hydrochloride] ... 6.39
CC(C)(C)OC(=O)N1CCC(c2ccn3nc(-c4ccco4)c(C#N)c3n2)CC1 ... 6.16

I: Cc1cc(-c2c(-c3cccc(C#N)c3)nn3ccc(NC(=O)C(C)(C)C)nc23)cc(Cl)n1
II: Cc1cc(-c2c(-c3cccc(C#N)c3)nn3ccc(N[C@@H](C)C(=O)O)nc23)cc(Cl)n1
### Prompt Please compare: I and II . Report which one has the smaller pKi value. Select an item and report its label.
### Response II
(II: 7.75, I: 8.57)

* * *

Counter-ions that a name gives are not always drawn.
// each record: one item and its Ki for UniProtKB P29274
Measure: Ki (µM)

Illustrative cases are given below, each with its answer.
Cc1cc(-c2c(-c3cccc(C#N)c3)nn3ccc(NCC(C)(C)C(=O)O)nc23)cc(Cl)n1 ... 0.0714
Cc1cc(-c2c(-c3cccc(C#N)c3)nn3ccc(O[C@H]4CCCNC4)nc23)cc(Cl)n1 ... 0.0508
Cc1cc(-c2c(-c3cccc(C#N)c3)nn3ccc(N4CC5CCC(C4)N5C)nc23)cc(Cl)n1 ... 0.0005
C[C@@H]1CN(c2ccn3nc(-c4ccco4)c(C#N)c3n2)CCN1 [Example 82, hydrochloride] ... 0.665
Cc1cc(-c2c(-c3cccc(C#N)c3)nn3ccc(N4CC(C(=O)O)C4)nc23)cc(Cl)n1 ... 0.0233
N#Cc1c(-c2cccc(F)c2)nn2ccc(NCc3ccccc3)nc12 ... 0.0022

A: N#Cc1cccc(-c2nn3ccc(N)nc3c2-c2ccnnc2)c1
B: Cc1cc(-c2c(-c3cccc(C#N)c3)nn3ccc(C(=O)NCC4(O)COC4)nc23)cc(C)n1
### Prompt Of A versus B , which is the one with smaller reported Ki? Lab note: record the label of whichever item you select.
### Response B

* * *

// each record: one item and its Ki for human Adenosine A2b receptor (Homo sapiens)
Measure: Ki (nM)

Use these answered entries as a reference point.
Cc1cc(-c2c(-c3cccc(C#N)c3)nn3ccc(C(=O)N[C@H]4COC[C@H]4O)nc23)cc(Cl)n1 [Example 6.17] ... 3
Cc1cc(-c2c(-c3cccc(C#N)c3)nn3ccc(CN4CCOCC4)nc23)cc(Cl)n1 [Example 20] ... 22

A: Cc1cc(-c2c(-c3cccc(C#N)c3)nn3ccc(C(=O)NOCC(C)(C)O)nc23)cc(C)n1 [Example 92.11]
B: Cc1cc(-c2c(-c3cccc(C#N)c3)nn3ccc(N4CCN(C)C(CO)C4)nc23)cc(Cl)n1 (stereo not shown) [Example 2.7]
### Prompt Please indicate which entry, A or B , has the lower recorded Ki value. Your answer should be the label of the entry you select.
### Response A
